System: RXF 393 renal
method_summary: NCI tumour cell line growth inhibition, 48 h; in the data active means GI50 below about 0.43 µM; inactive means the rest
Lab note: assign the record to one of active, inactive

Some entries whose results are on file:
CCN1C(=O)N(CC)C2C1NN=c1s/c(=C\c3ccc([N+](=O)[O-])cc3)c(=O)n12 (centres undefined)    inactive
NCCCNCCCNc1nc2ccccc2c2[nH]c3ccccc3c12    active

Query string: Please share the test call associated with CC[C@]12C=CCN3CC[C@]4(C(=C(C(=O)OC)C1)Nc1ccccc14)[C@@H]32 .
Result string: inactive

Query string: Please share the test call associated with c1ccc(CNc2nc(Nc3ccc(-c4nc5ccccc5[nH]4)cc3)c3cn[nH]c3n2)cc1 .
Result string: inactive

Query string: Please share the test call associated with COc1ccc2c(c1)C(=O)/C(=C/c1ccc(OCC(=O)c3ccc(Cl)cc3)cc1)O2 .
Result string: inactive

Query string: Please share the test call associated with Cn1cc(-c2csc(-c3cn(C)c4ncccc34)n2)c2ccccc21 .
Result string: active

Query string: Please share the test call associated with O=[N+]([O-])c1ccc([I+]c2ccccc2)cc1 .
Result string: inactive

Query string: Please share the test call associated with C[C@@H](Oc1cc(-n2cnc3ccc(OCC4CCN(C)CC4)cc32)sc1C(N)=O)c1ccccc1C(F)(F)F .
Result string: active

Query string: Please share the test call associated with O=C(O)Cc1ccccc1 .
Result string: inactive

----------
Test system: DMS 114 small cell lung
method_summary: NCI tumour cell line growth inhibition, 48 h
measured_attribute: TGI

Before answering, review these 6 worked examples.
COc1cc(C2c3cc4c(cc3[C@@H](OCCN)[C@H]3COC(=O)C23)OCO4)cc(OC)c1O (some centres not stated)    0.162 µM
Nc1cc2c3c(cccc3c1)C(=O)N(CCN1CCN(CCN3C(=O)c4cccc5cc(N)cc(c45)C3=O)CC1)C2=O    > 100 µM
O=C(NCCS(=O)(=O)N1C(=O)C2CCCN2C(=O)[C@@H]1Cc1ccccc1)OCc1ccccc1 (some centres not stated)    89.2 µM
COc1ccc(Br)c(CCCCC(=O)O)c1    > 100 µM
CC1(C)CC(C2CC(C)(C)CC(C)(C)[C@H]2O)[C@@H](O)C(C)(C)C1 (some centres not stated)    > 100 µM
Fc1cccc(C=NC23CC4CC(CC(C4)C2)C3)c1    > 100 µM

Query string: Value wanted: TGI (DMS 114 small cell lung) of entry O=c1[nH]cnc2c1nnn2C1C=C(CO)C(O)C1O (configuration not stated)
Result string: > 100 µM

----------
Test system: A498 renal
method_summary: NCI tumour cell line growth inhibition, 48 h
Below, each of the compounds is paired with its reported GI50 value.

Before answering, review these 4 worked examples.
O=C(Nc1ccc(-n2cc(-c3ccncc3)c(-c3ccc(O)c(Cl)c3)n2)cc1)c1ccc(Cl)c(Cl)c1    > 32.5 µM
CC[C@]12C=CCN3CC[C@]4(C(=C(C(=O)OC)C1)Nc1ccccc14)[C@@H]32    7.12 µM
c1ccc(COc2ccc(Nc3ncnc4ccc(-c5ccco5)cc34)cc2)cc1    5.39 µM
CC(=O)[CH-]C(=O)c1ccccc1.CC(=O)[CH-]C(=O)c1ccccc1.[O-]Cc1cccs1.[O-]Cc1cccs1.[Ti+4]    > 100 µM

Query string: Value wanted: GI50 (A498 renal) of entry N=C(N)c1ccc(-c2ccc(-c3ccccc3)o2)cc1
Result string: 2.85 µM

----------
Below, each of the compounds is paired with its reported TGI value.
System: MDA-MB-231 breast
method_summary: NCI tumour cell line growth inhibition, 48 h

Before answering, review these 5 worked examples.
COc1ccc(C(c2ccccc2)N2C(=O)CCC2C(=O)O)cc1OC (stereo unspecified)    > 100 µM
CCC/C(Cl)=N/OC(=O)Nc1cccc(F)c1    27.7 µM
CC1(C)OCC(C2OC(On3nnc4ccc(Cl)cc43)C3OC(C)(C)OC23)O1 (stereo unspecified)    > 100 µM
c1cc(-c2ccc(Oc3ccc(-c4ccncc4)cc3)cc2)ccn1    > 100 µM
COc1cc2c(c(Br)c1N)-c1cc(Br)c(N)cc1C2=O    > 81 µM

Query string: Can you share its TGI? I mean this compound: COC(=O)/C=C1/OC(c2ccccc2)=CC1=O
Result string: 31.4 µM

----------
Tested on: BT-549 breast
method_summary: NCI tumour cell line growth inhibition, 48 h
measured_attribute: TGI

Nc1nc(SCC(=O)c2ccccc2)nc2nc3c(c(-c4ccccc4)c12)CCCC3    > 100 µM
C=CCSC1=N/C(=C\c2ccco2)C(=O)N1CC=C    > 100 µM
Cc1cc2c(cc1-c1cc3c(cc1C)C(C(C)C)=C(O)C(=O)/C3=C\Nc1cccc3c(N)cccc13)/C(=C/Nc1cccc3c(N)cccc13)C(=O)C(O)=C2C(C)C    > 100 µM

Query string: Can you share its TGI? I mean this compound: O=C1Nc2ccccc2/C1=C\c1c(Cl)[nH]c2ccccc12
Result string: 6.22 µM

Query string: Can you share its TGI? I mean this compound: C=C(CNCCc1ccc(O)cc1)[C@@H]1CC[C@]2(CO)CC[C@]3(C)[C@H](CC[C@@H]4[C@@]5(C)CCC(NCCO)C(C)(C)[C@@H]5CC[C@]43C)[C@@H]12 (stereo partly specified)
Result string: 3.15 µM

Query string: Can you share its TGI? I mean this compound: COc1ccc(-c2c(C(=O)Nc3ccccc3)c(-c3ccccc3)n(C3OC(CO)C(O)C(O)C3O)c(=S)c2C#N)cc1 (stereo unspecified)
Result string: > 100 µM

Query string: Can you share its TGI? I mean this compound: CC(=O)Nc1ccc2c(c1)C(=Nc1ccc(C(=O)O)cc1)c1ccccc1-2
Result string: > 100 µM

Query string: Can you share its TGI? I mean this compound: CC1(C)O[C@@H]([C@@H](O)[C@H](O)C2SCCCS2)[C@@H](CO)O1
Result string: > 100 µM

Query string: Can you share its TGI? I mean this compound: N#Cc1c(-c2ccccc2)cc(Nc2ccc(F)cc2)n2c1nc1ccccc12
Result string: > 25.2 µM

Query string: Can you share its TGI? I mean this compound: COc1ccc2[nH]c3c(c2c1)CCc1ccccc1-3
Result string: > 100 µM

Query string: Can you share its TGI? I mean this compound: COC(=O)C1(Cc2ccccc2C)Cc2ccc(C)cc2C1=O (stereo unspecified)
Result string: > 100 µM

Query string: Can you share its TGI? I mean this compound: CC(=O)Nc1ccccc1S(=O)(=O)c1c(-c2c(C)c(Cl)c(C)c(Cl)c2C)noc1C
Result string: > 100 µM

Query string: Can you share its TGI? I mean this compound: CCCNc1c(Cl)cc(Cl)c2[nH]c3ccccc3c(=O)c12
Result string: > 100 µM

----------
Test system: HCC-2998 colon
method_summary: NCI tumour cell line growth inhibition, 48 h
Below, each of the molecules is paired with its reported TGI value.
Express it in µM; write the number only.

O=C1C(c2c(O)n(-c3ccccc3)c3ccccc23)=Nc2ccccc21    75.5

Query string: Value wanted: TGI (HCC-2998 colon) of entry CSc1nc2ccccc2c(=O)n1-c1cccc(C)c1
Result string: 35.1

----------
System: HOP-62 NSCLC
method_summary: NCI tumour cell line growth inhibition, 48 h; in the data active means GI50 below about 0.43 µM; inactive means the rest
Lab note: assign the record to one of true = active, false = inactive

Some entries whose results are on file:
O=C(O)Cc1ccccc1    false
CCOC(=O)/C(=C/c1c(-c2ccccc2)[nH]c2ccccc12)C(=O)c1ccc(Cl)cc1    false
C=C(CNCCc1ccc(O)cc1)[C@@H]1CC[C@]2(CO)CC[C@]3(C)[C@H](CC[C@@H]4[C@@]5(C)CCC(NCCO)C(C)(C)[C@@H]5CC[C@]43C)[C@@H]12 (stereo partly drawn)    false
Cn1cc(-c2nonc2-c2cn(C)c3ccc(Br)cc23)c2ccccc21    false
N=C(N)c1ccc(-c2ccc(-c3ccccc3)o2)cc1    false
Cn1cc(-c2csc(-c3cn(C)c4ncccc34)n2)c2ccccc21    false

Query string: Please share the test call associated with COc1cccc(C2C3=C(COC3=O)N(CCO)c3cc4c(cc32)CCC4)c1 (stereo not drawn) .
Result string: true

Query string: Please share the test call associated with Cn1cccc1C1CC(=O)N(CCC[Se]C#N)C1=O (stereo not drawn) .
Result string: false

----------
System: SNB-75 CNS
method_summary: NCI tumour cell line growth inhibition, 48 h; in the data active = GI50 below about 0.43 µM; inactive = the rest
Lab note: assign the record to one of class 1 (active), class 0 (inactive)

Some entries whose results are on file:
CC[C@]12C=CCN3CC[C@]4(C(=C(C(=O)OC)C1)Nc1ccccc14)[C@@H]32    class 0
S=c1nc(/C=C/c2ccc(Cl)c(Cl)c2)[nH][nH]1    class 0
O=C(O)Cc1ccccc1    class 0

Query string: Please share the test call associated with Cn1cc(-c2ccc3c(c2)ncn3-c2ccc(CC(=O)Nc3cc(C(C)(C)C)on3)cc2)cn1 .
Result string: class 0

Query string: Please share the test call associated with C[CH2][Sn]([CH2]C)([O]C(=O)c1cc(OC)c(OC)c(OC)c1)[O][Sn]([CH2]C)([CH2]C)[O]C(=O)c1cc(OC)c(OC)c(OC)c1 .
Result string: class 0

These data points were gathered from PubChem BioAssay (NCI).
